Target: C-Raf kinase (Homo sapiens, UniProt P04049, Y340D/Y341D)
Construct: Y340D,; GST (N); purchased Sigma
Sequence (P04049 307-648 Y340D/Y341D): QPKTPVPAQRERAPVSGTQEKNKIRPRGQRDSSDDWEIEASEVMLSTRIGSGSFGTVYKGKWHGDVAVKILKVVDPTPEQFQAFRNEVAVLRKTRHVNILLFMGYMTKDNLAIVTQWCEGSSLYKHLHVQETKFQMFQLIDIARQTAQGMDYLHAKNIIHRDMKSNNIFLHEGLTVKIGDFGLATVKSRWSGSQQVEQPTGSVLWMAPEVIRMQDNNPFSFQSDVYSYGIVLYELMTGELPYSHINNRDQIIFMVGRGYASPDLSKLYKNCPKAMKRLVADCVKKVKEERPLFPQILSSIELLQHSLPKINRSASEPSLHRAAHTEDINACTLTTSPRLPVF
Test: Biochemical assay for C-Raf.1 (coupled pyruvate kinase/lactate dehydrogenase)
Details: read-out: CRAF.1 IC50
Reported IC50 is given for each of the following molecules.
recorded endpoint: IC50

test_smiles=Cc1cc(F)c(NC(=O)NCCC2(C(F)(F)F)CC2)cc1-c1cc(OCCO)nc(C2CCOCC2)c1 result_value="≤ 100 nM"
test_smiles=Cc1ccc(NC(=O)N2CC[C@@H](C(F)(F)F)C2)cc1-c1cncc(-c2cc(NC(=O)C3CC3)ncn2)c1 result_value="≤ 100 nM"
test_smiles=COC(=O)Nc1cc(-c2cncc(-c3cc(NC(=O)N4CC[C@H](C(F)(F)F)C4)ccc3C)c2)ccn1 result_value="≤ 100 nM"
